This collection of values is drawn from patent US6355823B1.

Biological target: intestinal Na/phosphate co-transporter (Oryctolagus cuniculus)
Sequence (G1SIP4 1-715): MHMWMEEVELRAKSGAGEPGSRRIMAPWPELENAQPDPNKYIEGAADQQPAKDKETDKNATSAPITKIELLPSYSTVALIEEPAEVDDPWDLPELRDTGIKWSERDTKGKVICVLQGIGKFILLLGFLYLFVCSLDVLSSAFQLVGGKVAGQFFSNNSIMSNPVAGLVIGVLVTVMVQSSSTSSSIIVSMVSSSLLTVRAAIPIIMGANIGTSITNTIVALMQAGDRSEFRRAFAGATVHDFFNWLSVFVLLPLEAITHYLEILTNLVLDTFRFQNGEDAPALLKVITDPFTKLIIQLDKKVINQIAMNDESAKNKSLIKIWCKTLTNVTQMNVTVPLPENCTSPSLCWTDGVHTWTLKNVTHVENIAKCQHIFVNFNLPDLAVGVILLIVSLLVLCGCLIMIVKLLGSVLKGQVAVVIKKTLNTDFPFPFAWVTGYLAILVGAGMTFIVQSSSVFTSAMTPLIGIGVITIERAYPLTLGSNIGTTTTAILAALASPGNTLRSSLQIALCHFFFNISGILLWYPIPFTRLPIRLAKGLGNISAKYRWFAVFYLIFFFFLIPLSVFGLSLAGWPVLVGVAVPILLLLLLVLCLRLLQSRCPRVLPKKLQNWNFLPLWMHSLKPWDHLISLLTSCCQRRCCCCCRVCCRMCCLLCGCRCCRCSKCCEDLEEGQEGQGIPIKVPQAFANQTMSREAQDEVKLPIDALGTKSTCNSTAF
Assay: Na-dependent [32P]phosphate uptake by rabbit intestinal brush border membrane (BBM) vesicles
EXPERIMENTAL ENDPOINT: pKi
API: returns pKi as number; meaning -log10 of concentration in mol/L.

Find the recorded pKi belonging to O=C(CCc1ccc(O)cc1)c1c(O)cc(O)cc1OP(=O)(O)O and report it.
6.23
